Taken from ChEMBL document CHEMBL1127553.

System: CHO
Assay: The sensitizing capacity for colchicine treatment of parental (PAR)CHO cells at concentration 1.0 (mg/L)
Assay type: functional, Cricetulus griseus
Non-standard residues stand in square brackets, D forms with d. Residues, ends and D or L forms follow the SMILES beside them. *: point of attachment. NMeI = CC[C@H](C)[C@H](NC)C(=O)O; NMeD = CN[C@@H](CC(=O)O)C(=O)O; NMeV = CN[C@H](C(=O)O)C(C)C; Pip = O=C(O)[C@@H]1CCCCN1; Lac = C[C@H](O)C(=O)O; OtBu = CC(C)(C)O*

compound | Activity
CC[C@H](C)[C@H]1C(=O)NCC(=O)N(C)[C@@H](C(C)C)C(=O)N[C@@H](Cc2ccc(OC)cc2)C(=O)O[C@H](C)C(=O)N2CCCC[C@H]2C(=O)N(C)[C@@H](C(C)C)C(=O)N[C@@H](C(C)C)C(=O)N(C)[C@@H](CC(=O)OCC23CC4CC(CC(C4)C2)C3)C(=O)N(C)[C@@H]([C@@H](C)CC)C(=O)N1C | 8.5
CC[C@H](C)[C@H]1C(=O)NCC(=O)N(C)[C@@H](C(C)C)C(=O)N[C@@H](Cc2ccc(OC)cc2)C(=O)O[C@@H](C)C(=O)N2CCCC[C@H]2C(=O)N(C)[C@@H](C(C)C)C(=O)N[C@@H](C(C)C)C(=O)N(C)[C@@H](CC(=O)OCCC(C)(C)C)C(=O)N(C)[C@@H]([C@@H](C)CC)C(=O)N1C | 7.9
CC[C@H](C)[C@H]1C(=O)NCC(=O)N(C)[C@@H](C(C)C)C(=O)N[C@@H](Cc2ccc(OC)cc2)C(=O)O[C@H](C)C(=O)N2CCCC[C@H]2C(=O)N(C)[C@@H](C(C)C)C(=O)N[C@@H](C(C)C)C(=O)N(C)[C@@H](CC(=O)OCCC(C)(C)C)C(=O)N(C)[C@@H]([C@@H](C)CC)C(=O)N1C | 8.7
CC[C@@H](C)[C@H]1C(=O)NCC(=O)N(C)[C@@H](C(C)C)C(=O)N[C@@H](Cc2ccc(OC)cc2)C(=O)O[C@H](C)C(=O)N2CCCC[C@H]2C(=O)N(C)[C@@H](C(C)C)C(=O)N[C@@H](C(C)C)C(=O)N(C)[C@H](CC(=O)N[C@H](CO)C(C)C)C(=O)N(C)[C@@H]([C@@H](C)CC)C(=O)N1C | 9.8
CC[C@@H](C)[C@H]1C(=O)NCC(=O)N(C)[C@@H](C(C)C)C(=O)N[C@@H](Cc2ccc(OC)cc2)C(=O)O[C@H](C)C(=O)N2CCCC[C@H]2C(=O)N(C)[C@@H](C(C)C)C(=O)N[C@@H](C(C)C)C(=O)N(C)[C@H](CC(=O)N(C)C)C(=O)N(C)[C@@H]([C@@H](C)CC)C(=O)N1C | 8.5
CC[C@H](C)[C@H]1C(=O)N(C)[C@@H]([C@@H](C)CC)C(=O)NCC(=O)N(C)[C@@H](C(C)C)C(=O)N[C@@H](Cc2ccc(OC)cc2)C(=O)O[C@H](C)C(=O)N2CCCC[C@H]2C(=O)N(C)[C@@H](C(C)C)C(=O)N[C@@H](C(C)C)C(=O)N(C)[C@H](CN(C)C(C=O)CCCC(=O)OC(C)(C)C)C(=O)N1C (some centres not stated) | 8.2
CC[C@@H](C)[C@H]1C(=O)NCC(=O)N(C)[C@@H](C(C)C)C(=O)N[C@@H](Cc2ccc(OC)cc2)C(=O)O[C@H](C)C(=O)N2CCCC[C@H]2C(=O)N(C)[C@@H](C(C)C)C(=O)N[C@@H](C(C)C)C(=O)N(C)[C@H](CC(=O)NC23CC4CC(CC(C4)C2)C3)C(=O)N(C)[C@@H]([C@@H](C)CC)C(=O)N1C | 8.9
CC[C@@H](C)[C@H]1C(=O)NCC(=O)N(C)[C@@H](C(C)C)C(=O)N[C@@H](Cc2ccc(OC)cc2)C(=O)O[C@@H](C)C(=O)N2CCCC[C@H]2C(=O)N(C)[C@@H](C(C)C)C(=O)N[C@@H](C(C)C)C(=O)N(C)[C@H](CC(=O)NCC(C)(C)C)C(=O)N(C)[C@@H]([C@@H](C)CC)C(=O)N1C | 13
CC[C@H](C)[C@H]1C(=O)NCC(=O)N(C)[C@@H](C(C)C)C(=O)N[C@@H](CC(=O)OC)C(=O)O[C@H](C)C(=O)N2CCCC[C@H]2C(=O)N(C)[C@@H](C(C)C)C(=O)N[C@@H](C(C)C)C(=O)N(C)[C@@H](CC(=O)OC)C(=O)N(C)[C@@H]([C@@H](C)CC)C(=O)N1C | 5.6
CC[C@H](C)[C@H]1C(=O)NCC(=O)N(C)[C@@H](C(C)C)C(=O)N[C@@H](Cc2ccc(OC)cc2)C(=O)O[C@@H](C)C(=O)N2CCCC[C@H]2C(=O)N(C)[C@@H](C(C)C)C(=O)N[C@@H](C(C)C)C(=O)N(C)[C@@H](CC(=O)OC(C)(C)C)C(=O)N(C)[C@@H]([C@@H](C)CC)C(=O)N1C (cyclo(G[NMeV]Y(Me)[Lac][Pip][NMeV]V[NMeD](OtBu)[NMeI][NMeI])) | 7
CC[C@@H](C)[C@H]1C(=O)NCC(=O)N(C)[C@@H](C(C)C)C(=O)N[C@@H](Cc2ccc(OC)cc2)C(=O)O[C@H](C)C(=O)N2CCCC[C@H]2C(=O)N(C)[C@@H](C(C)C)C(=O)N[C@@H](C(C)C)C(=O)N(C)[C@H](CC(=O)NCC(C)(C)C)C(=O)N(C)[C@@H]([C@@H](C)CC)C(=O)N1C | 12
CC[C@H](C)[C@H]1C(=O)N(C)[C@@H]([C@@H](C)CC)C(=O)NCC(=O)N(C)[C@@H](C(C)C)C(=O)N[C@@H](Cc2ccc(OC)cc2)C(=O)O[C@H](C)C(=O)N2CCCC[C@H]2C(=O)N(C)[C@@H](C(C)C)C(=O)N[C@@H](C(C)C)C(=O)N(C)[C@H](CN(C)C(C=O)C/C=C/C(=O)OC(C)(C)C)C(=O)N1C (some centres not stated) | 8.7
